Here the recorded pKi is given for each entry.
# study-system: HIV-1 protease Mutant 9 (Human immunodeficiency virus type 1, UniProt P04585)
# experiment-description: Ki against HIV-1 protease Mutant 9
# Format: biochemical
# experimental-context: HIV-1 protease Mutant 9
Note on pKi: it is the negative log10 of concentration, concentration in mol/L.

CCS(=O)(=O)NCc1noc2ccc(S(=O)(=O)N(CC(C)C)CC(O)C(Cc3ccccc3)NC(=O)OC3COC4OCCC34)cc12 (centres unmarked) [Compound 223] | 9.59
CC(=O)OCc1noc2ccc(S(=O)(=O)N(CC(C)C)CC(O)C(Cc3ccccc3)NC(=O)OC3COC4OCCC34)cc12 (centres unmarked) [Compound 205] | 9.64
CC(C)CN(CC(O)C(Cc1ccccc1)NC(=O)OC1COC2OCCC12)S(=O)(=O)c1ccc2onc(CS(C)(=O)=O)c2c1 (centres unmarked) [Compound 243] | 9.02

The measured pKi associated with CC(C)CN(CC(O)C(Cc1ccccc1)NC(=O)OC1COC2OCCC12)S(=O)(=O)c1ccc2onc(CNCCOc3ccccc3)c2c1 (centres unmarked) [Compound 230] reads 9.85

The measured pKi associated with CC(C)CN(CC(O)C(Cc1ccccc1)NC(=O)OC1COC2OCCC12)S(=O)(=O)c1ccc2onc(CNCc3ccc4occc4c3)c2c1 (centres unmarked) [Compound 248] reads 9.48
